quantity_measured: melting point

CNc1cc2c(Nc3cccc(Br)c3)c(C#N)cnc2cn1 | 250 °C (dec.)
CN(C)CCOc1cc2c(Nc3ccc(Cl)cc3F)c(C#N)cnc2cn1 | 150 to 152 °C
C[Si](C)(C)C#Cc1cc2c(Nc3cccc(Br)c3)c(C#N)cnc2cn1 | 125 °C

Enquiry: Kindly indicate its recorded melting point. Item: `N#Cc1cnc2cnc(F)cc2c1Oc1ccc(Cl)cc1F`
Return: 186 to 188 °C

Enquiry: State its melting point for this compound: `N#Cc1cnc2cnc(F)cc2c1Nc1ccc(Oc2ccccc2)cc1`
Return: 211 to 213 °C

Enquiry: Determine from records and report melting point for `N#Cc1cnc2cnc(F)cc2c1Nc1ccc(F)c(Cl)c1`
Return: 108 to 111 °C

Enquiry: Fill in reported melting point for this entry: `N#Cc1cnc2cnc(N)cc2c1Nc1cccc(Br)c1`
Return: 185 to 190 °C (dec.)

Enquiry: Please report melting point for the following compound: `CN(C)CCOc1cc2c(Nc3ccc(Oc4ccccc4)cc3)c(C#N)cnc2cn1`
Return: 159 to 161 °C
